test: folding stability dG unfold (combined trypsin and chymotrypsin); higher = more stable
QUANTITY: folding stability dG unfold (kcal/mol)
Please respond with the number in kcal/mol and leave the unit unwritten.

folding stability dG unfold for SAGGTMTIEAWVKYKDMTPEEMREQAKEIAENIMNMMRQRGFPIKKIEVDVEQDPGNGWVQVTIEIEFSAGG [r13_212_TrROS] ?
4.24

folding stability dG unfold for SAGGSAGGSGHHHMTTRTSTSTDPATGSTTVTTTRTTTDGGTVTTTTTLPPPAATTTTSTTTSSAGGSAGGS [r12_1029_JUSTAS] ?
-0.165

folding stability dG unfold for SAGGSAGGSKKTVLVRITVTLPNGEKREIELEVEVDSVEDLKELLKKLPLPPGMKVTIEVVPASAGGSAGGS [r20_162_TrROS_Hall] ?
4.16

folding stability dG unfold for SAGGSAGGSEKPVLIVKVKVKNPKTKKWEEKTIEVPEGVKTPEEVAKALEKEFGDVVKVEILPSAGGSAGGS [r12_942_TrROS_Hall] ?
1.63

----------
experiment: folding stability dG unfold from chymotrypsin proteolysis; higher = more stable
Label class 0 if folding stability dG unfold falls below 3 kcal/mol; label class 1 in every other case.

Would you say SAGGSAGGSAGGPPVLAESTFSFPDGVTVRLAFLPDGKAIAELTPPDGSKIEVEFDVDASAGGSAGGSAGGS [r10_1184_TrMRF] shows folding stability dG unfold at minimum 3 kcal/mol?
class 0

Would you say SAGGSAGGPIDLDDIKIEEIEHERNPNGMMYHEVTIRFPGGKIPVWFHPNMSLDNAVDMLRAFISAGGSAGG [r6_233_TrROS] shows folding stability dG unfold at minimum 3 kcal/mol?
class 0

Would you say SAGGSAGGSDIPIEIVDVEHTDNMISVIIKGPDGNYFVINFQFNPGNGKFNVNISIIPPEDLKSAGGSAGGS [r20_70_TrROS] shows folding stability dG unfold at minimum 3 kcal/mol?
class 1

Would you say SLTAEEAAANPELAARLLALPPVPPFPVELLFVNPETRAVLPAKATVYQFPNTWLVLFPENGAALPVPGGSA [r9_548_TrMRF] shows folding stability dG unfold at minimum 3 kcal/mol?
class 0

Would you say SMIKVGFNVTGLPEEAEAKAEELARELAEETGARVAGVELLEAVPHPDGGPETFNVLVTLEVPNPEAIEKSA [r9_302_TrMRF] shows folding stability dG unfold at minimum 3 kcal/mol?
class 0

----------
test: folding stability dG unfold (combined trypsin and chymotrypsin); higher = more stable
Label Not fulfilled if folding stability dG unfold falls below 3 kcal/mol; label Fulfilled in every other case.

Would you say SAGGSAGGSPDEGDPVKITILIMIMIPNENGEPYFIFIRVEITIDPKDNKIQITKIDEIYIFPSAGGSAGGS [r12_358_TrROS] shows folding stability dG unfold at minimum 3 kcal/mol?
Fulfilled

Would you say SAGGSAGGGHMPVTKTVQLPGRTVTLTYYPEKGTVKITFPEDGTEKTVPISPSETIEDVIKKLSSAGGSAGG [r6_166_JUSTAS] shows folding stability dG unfold at minimum 3 kcal/mol?
Not fulfilled

Would you say SQVKIHIPFEVEYSPENGNYFFMIRVRYPGKERPIMFPYKDPEQMREWARTIAKELAKENPDNVEIEIWWSA [r9_1148_TrROS] shows folding stability dG unfold at minimum 3 kcal/mol?
Not fulfilled

Would you say SAGGSAGGSAGKTIKILLVVKDPETNEYYFLVMEIHLDENGNLHMKIKVFPTKEDAEKALSAGGSAGGSAGG [r11_792_TrROS_Hall] shows folding stability dG unfold at minimum 3 kcal/mol?
Fulfilled

Would you say SAGGSMKSEKVFTDPGPFDGASVTVTATEDGTITITVVDPDGVPKTFTKKVEKGNPEEVVKEAIKESAGGSA [r2_298_TrMRF] shows folding stability dG unfold at minimum 3 kcal/mol?
Not fulfilled

Would you say SAGGSAGGGLSASDTVTFPDGTVVTVAPDATVTITVPAPPDAAGNLTSTVTRTVTVAPGTRVLLSAGGSAGG [r6_90_JUSTAS] shows folding stability dG unfold at minimum 3 kcal/mol?
Not fulfilled

Would you say SAGGKVREIDFPMDPGELRDAIDELKREGYMVMIEMPNGQERTIDPNLEDLPPGMPFEIYVMPPKDGSAGGS [r16_31_TrROS] shows folding stability dG unfold at minimum 3 kcal/mol?
Not fulfilled

Would you say SLIEALRAALEAGADEVTLRIVMPEEEAEELEKALEDLGFEIVSRERVEVDGRRYLVMEIRLRAPPPEEPSA [r9_498_TrROS_Hall] shows folding stability dG unfold at minimum 3 kcal/mol?
Fulfilled

Would you say SAGRRKVEIPIPFDDPGQAMSADELADELRELGLKPGHEPKVEPHPDGYMRVKFEVPGPEVTIHIPMWDSAG [r5_144_TrROS] shows folding stability dG unfold at minimum 3 kcal/mol?
Not fulfilled

Would you say SAGGMTSTFRFSDSRGRLSVEKITPETGKVTVVEQGPSSPRRSTLNASPEEAFQQLKDANDFPASRLESAGG [r13_141_JUSTAS] shows folding stability dG unfold at minimum 3 kcal/mol?
Not fulfilled

Would you say NRYYRITIRNPDGMPIELFVRRSPNGEYMVRVKINMPNKKPKTIWFPFKSPEDILEEIRKHLPWDIEIEPWS [r1_137_TrROS] shows folding stability dG unfold at minimum 3 kcal/mol?
Fulfilled

Would you say SAGGSAMVVTVPASSLTPESIRALARENPGPVELVFPEEGRRVTVEVRGDGVVRVEEHPLDPAELASAGGSA [r15_751_JUSTAS] shows folding stability dG unfold at minimum 3 kcal/mol?
Not fulfilled

Would you say SAGGSANMREVEIPMTPNDLEEALEEVEDAPPGRNVSVNMTNPEEGKPYPIKIRVNENGKLTEIEFSAGGSA [r15_228_TrROS] shows folding stability dG unfold at minimum 3 kcal/mol?
Not fulfilled

Data provenance: the supplement of paper PMC12764529
